Values were extracted from ChEMBL document CHEMBL1152364.

Target: UniProt:P07711
Sequence (P07711 whole entry): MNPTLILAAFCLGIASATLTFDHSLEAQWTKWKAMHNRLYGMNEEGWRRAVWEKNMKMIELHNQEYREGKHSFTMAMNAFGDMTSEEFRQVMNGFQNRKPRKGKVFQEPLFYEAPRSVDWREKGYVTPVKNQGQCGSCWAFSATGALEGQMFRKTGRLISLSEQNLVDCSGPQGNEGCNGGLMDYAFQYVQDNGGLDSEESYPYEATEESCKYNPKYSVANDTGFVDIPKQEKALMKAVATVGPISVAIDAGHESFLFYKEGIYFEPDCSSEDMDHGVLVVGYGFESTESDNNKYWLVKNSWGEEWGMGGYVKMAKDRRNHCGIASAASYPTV
Experiment: Inhibition of cathepsin L
Property label: IC50 (nM)

[[record]]
smiles_data = "N#CCNC(=O)[C@H](Cc1cccc(Cl)c1)NC(=O)C1=CCCCC1"
result_number = 501

[[record]]
smiles_data = "N#CCNC(=O)[C@H](Cc1cccc(Cl)c1)NC(=O)c1cccc2c1CCCC2"
result_number = 398

[[record]]
smiles_data = "Cc1cc(C(=O)N[C@@H](Cc2cccc(Cl)c2)C(=O)NCC#N)c2cc(C)ccc2c1"
result_number = 20


1: Cc1nc(C(=O)N[C@@H](Cc2cccc(Cl)c2)C(=O)NCC#N)c(C)o1
2: CC(C)c1cc(C(=O)N[C@@H](Cc2cccc(Cl)c2)C(=O)NCC#N)n(C)n1
3: Cc1nc(C)c(C(=O)N[C@@H](Cc2cccc(Cl)c2)C(=O)NCC#N)s1
4: Cc1nn(C)cc1C(=O)N[C@@H](Cc1cccc(Cl)c1)C(=O)NCC#N
# desc sort on IC50 across 4 compounds Form field (ranking): labels in requested order. 4, 1, 3, 2
(4: 1260 nM, 1: 631 nM, 3: 398 nM, 2: 79.4 nM)

----------
Biological target: Cathepsin B (Homo sapiens, UniProt P07858)
Property label: IC50 (µM)

As a guide, the following entries are already answered.
[[record]]
smiles_data = "Cc1nc(C)c(C(=O)N[C@@H](Cc2cccc(Cl)c2)C(=O)NCC#N)s1"
target_or_system = "Cathepsin B (Homo sapiens, UniProt P07858)"
result_number = 10

[[record]]
smiles_data = "CC(C)c1cc(C(=O)N[C@@H](Cc2cccc(Cl)c2)C(=O)NCC#N)n(C)n1"
target_or_system = "Cathepsin B (Homo sapiens, UniProt P07858)"
result_number = 5.01


P: Cc1cccc(C(=O)N[C@@H](Cc2cccc(Cl)c2)C(=O)NCC#N)c1
Q: Cc1cc(C)cc(C(=O)N[C@@H](Cc2cccc(Cl)c2)C(=O)NCC#N)c1
Could you determine which record has the numerically smaller IC50? Candidates: P and Q Lab note: record the label of whichever item you select. P

----------
Form: system (Cathepsin S (Homo sapiens)), quantity (pIC50), values below.
pIC50: −log10 of the molar value.
Property label: pIC50

As a guide, the following entries are already answered.
[[record]]
smiles_data = "Cc1cccc(C(=O)N[C@@H](Cc2cccc(Cl)c2)C(=O)NCC#N)c1C"
property_label = "pIC50"
result_number = 5.70

[[record]]
smiles_data = "Cc1cc(C(=O)N[C@@H](Cc2cccc(Cl)c2)C(=O)NCC#N)c(C)s1"
property_label = "pIC50"
result_number = 6.10

[[record]]
smiles_data = "Cc1cc(C(=O)N[C@@H](Cc2cccc(Cl)c2)C(=O)NCC#N)n(C)n1"
property_label = "pIC50"
result_number = 6.10


a: Cc1cc(C)cc(C(=O)N[C@@H](Cc2cccc(Cl)c2)C(=O)NCC#N)c1
b: N#CCNC(=O)[C@H](Cc1cccc(Cl)c1)NC(=O)c1cccc(Cl)c1
Thinking about recorded pIC50 values, which is higher, a or b ? Lab note: record the label of whichever item you select. b
(b: 6.70, a: 6.50)

I: Cc1nn(C)cc1C(=O)N[C@@H](Cc1cccc(Cl)c1)C(=O)NCC#N
II: N#CCNC(=O)[C@H](Cc1cccc(Cl)c1)NC(=O)C1CCCCC1
Thinking about recorded pIC50 values, which is higher, I or II ? Lab note: record the label of whichever item you select. I
(I: 5.90, II: 5.60)

A: Cc1ccc(C)c(C(=O)N[C@@H](Cc2cccc(Cl)c2)C(=O)NCC#N)c1
B: N#CCNC(=O)[C@H](Cc1cccc(Cl)c1)NC(=O)C1=CCCCC1
Thinking about recorded pIC50 values, which is higher, A or B ? Lab note: record the label of whichever item you select. A
